Tested on: LXRa:RXRa (NR concentration 270 nM, RXRa partner concentration 90 nM)
Test: PBM binding z-score (relative to random genomic background probes); higher = stronger binding; sequences stand for … in GC…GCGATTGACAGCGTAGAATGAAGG
parameter_measured: PBM binding z-score
The response must contain the number and no unit.

Reference set (3 entries):
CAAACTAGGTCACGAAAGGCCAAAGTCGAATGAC 6.02
GCTATTAGTTGAACGGGCAACCGAATGATTCTCG -0.312
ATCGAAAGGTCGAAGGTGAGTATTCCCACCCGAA 3.66

# input for lookup
Entry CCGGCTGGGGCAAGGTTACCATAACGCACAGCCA , PBM binding z-score reported as 0.386
